test system: Staphylococcus aureus; experiment: Antibacterial activity against methicillin-resistant Staphylococcus aureus PU 20 harboring c-ermA gene incubated for 16 to 20 hrs by CLSI based broth microdilution method; format: functional; details: time 16-20 hrs
measurement.type: MIC

Under Staphylococcus aureus: MIC value of CC[C@H]1OC(=O)[C@H](C)[C@@H](OC(=O)CCNCCCCNc2cc3c(cc2F)c(=O)c(C(=O)O)cn3C2CC2)[C@H](C)[C@@H](O[C@@H]2O[C@H](C)C[C@H](N(C)C)[C@H]2O)[C@](C)(OC)C[C@@H](C)/C(=N\OCC#Cc2ccc3c(c2)c(=O)c(C(N)=O)cn3CC)[C@H](C)[C@H]2OC(=O)O[C@@]21C ?
> 256 µg/mL

Could you do the same for CC[C@H]1OC(=O)[C@H](C)[C@@H](OC(=O)CCNCCCCNc2cc3c(cc2F)c(=O)c(C(=O)O)cn3C2CC2)[C@H](C)[C@@H](O[C@@H]2O[C@H](C)C[C@H](N(C)C)[C@H]2O)[C@](C)(OC)C[C@@H](C)/C(=N\OCCCc2cncc(C(=O)NC)c2)[C@H](C)[C@H]2OC(=O)O[C@@]21C , please?
> 256 µg/mL

Could you do the same for CC[C@H]1OC(=O)[C@H](C)[C@@H](OC(=O)CCNCCCCCCCNc2cc3c(cc2F)c(=O)c(C(=O)O)cn3C2CC2)[C@H](C)[C@@H](O[C@@H]2O[C@H](C)C[C@H](N(C)C)[C@H]2O)[C@](C)(OC)C[C@@H](C)/C(=N\OC)[C@H](C)[C@H]2OC(=O)O[C@@]21C , please?
128 µg/mL

###

Kindly supply the reported MIC values for the records listed here.
test system: Streptococcus pneumoniae; assay: Antibacterial activity against Streptococcus pneumoniae ATCC 49619 incubated for 16 to 20 hrs by CLSI based broth microdilution method; format: functional; details: time 16-20 hrs
Note: unit µg/mL is implicit; provide only the numeric part.

Bench note: what MIC did CC[C@H]1OC(=O)[C@H](C)[C@@H](OC(=O)Cc2ccccn2)[C@H](C)[C@@H](O[C@@H]2O[C@H](C)C[C@H](N(C)C)[C@H]2O)[C@](C)(OC(=O)CCN2CCN(c3c(F)cc4c(=O)c(C(=O)O)cn(C5CC5)c4c3OC)CC2C)C[C@@H](C)CN(C)[C@H](C)[C@@H](O)[C@]1(C)O (some centres not stated) show?
0.5

Could you do the same for CC[C@H]1OC(=O)[C@H](C)[C@@H](OC(=O)CCN2CCN(c3cc4c(cc3F)c(=O)c(C(=O)O)cn4C3CC3)CC2)[C@H](C)[C@@H](O[C@@H]2O[C@H](C)C[C@H](N(C)C)[C@H]2O)[C@](C)(OC)C[C@@H](C)/C(=N\OCCCc2cncc(C(=O)NC)c2)[C@H](C)[C@H]2OC(=O)O[C@@]21C , please?
0.016

Could you do the same for CC[C@H]1OC(=O)[C@H](C)[C@@H](OC(=O)CCNCCCCCCNc2cc3c(cc2F)c(=O)c(C(=O)O)cn3C2CC2)[C@H](C)[C@@H](O[C@@H]2O[C@H](C)C[C@H](N(C)C)[C@H]2O)[C@](C)(OC)C[C@@H](C)/C(=N\OC)[C@H](C)[C@H]2OC(=O)O[C@@]21C , please?
0.062

Could you do the same for CC[C@H]1OC(=O)[C@H](C)[C@@H](OC(=O)CCN2CCN(c3nc4c(cc3F)c(=O)c(C(=O)O)cn4CC)CC2)[C@H](C)[C@@H](O[C@@H]2O[C@H](C)C[C@H](N(C)C)[C@H]2O)[C@](C)(OC)C[C@@H](C)/C(=N\OCC#Cc2cncc(C(=O)NC)c2)[C@H](C)[C@H]2OC(=O)O[C@@]21C , please?
0.03

Could you do the same for CC[C@H]1OC(=O)[C@H](C)[C@@H](OC(=O)CCN2CCN(c3cc4c(cc3F)c(=O)c(C(=O)O)cn4C3CC3)CC2)[C@H](C)[C@@H](O[C@@H]2O[C@H](C)C[C@H](N(C)C)[C@H]2O)[C@](C)(OC)C[C@@H](C)/C(=N\OCC#Cc2cncc(C(=O)NC)c2)[C@H](C)[C@H]2OC(=O)O[C@@]21C , please?
0.03

###

test system: Streptococcus pneumoniae; test: Selectivity ratio of MBC for Streptococcus pneumoniae ATCC 49619 to MIC for Streptococcus pneumoniae ATCC 49619; type: functional
Kindly supply the reported Selectivity ratio values for the records listed here.
No unit in the answer, please; the number alone is enough.

Bench note: what Selectivity ratio did CC[C@H]1OC(=O)[C@H](C)[C@@H](OC(=O)CCN2CCN(c3cc4c(cc3F)c(=O)c(C(=O)O)cn4C3CC3)CC2)[C@H](C)[C@@H](O[C@@H]2O[C@H](C)C[C@H](N(C)C)[C@H]2O)[C@](C)(OC)C[C@@H](C)/C(=N\OC)[C@H](C)[C@H]2OC(=O)O[C@@]21C show?
1

Could you do the same for CC[C@H]1OC(=O)[C@H](C)[C@@H](OC(=O)CCNCCCCCCCCNc2cc3c(=O)c(C(=O)O)cn(C4CC4)c3cc2Cl)[C@H](C)[C@@H](O[C@@H]2O[C@H](C)C[C@H](N(C)C)[C@H]2O)[C@](C)(OC)C[C@@H](C)/C(=N\OC)[C@H](C)[C@H]2OC(=O)O[C@@]21C , please?
1

Could you do the same for CC[C@H]1OC(=O)[C@H](C)[C@@H](OC(=O)CCNCCCCNc2cc3c(cc2F)c(=O)c(C(=O)O)cn3C2CC2)[C@H](C)[C@@H](O[C@@H]2O[C@H](C)C[C@H](N(C)C)[C@H]2O)[C@](C)(OC)C[C@@H](C)/C(=N\OC/C=C/c2ccc3c(c2)c(=O)c(C(N)=O)cn3CC)[C@H](C)[C@H]2OC(=O)O[C@@]21C , please?
2

###

tested on: Staphylococcus aureus; experiment: Selectivity ratio of MBC for methicillin-resistant Staphylococcus aureus PU 32 harboring i-ermA gene to MIC for methicillin-resistant Staphylococcus aureus PU 32 harboring i-ermA gene; assay type: functional
Kindly supply the reported Selectivity ratio values for the records listed here.

Bench note: what Selectivity ratio did CC[C@H]1OC(=O)[C@H](C)[C@@H](OC(=O)CCNCCCNc2cc3c(=O)c(C(=O)O)cn(C4CC4)c3cc2Cl)[C@H](C)[C@@H](O[C@@H]2O[C@H](C)C[C@H](N(C)C)[C@H]2O)[C@](C)(OC)C[C@@H](C)/C(=N\OC)[C@H](C)[C@H]2OC(=O)O[C@@]21C show?
>8

Could you do the same for CC[C@H]1OC(=O)[C@H](C)[C@@H](OC(=O)CCN2CCN(c3cc4c(cc3F)c(=O)c(C(=O)O)cn4C3CC3)CC2)[C@H](C)[C@@H](O[C@@H]2O[C@H](C)C[C@H](N(C)C)[C@H]2O)[C@](C)(OC)C[C@@H](C)/C(=N\OCC#Cc2cncc(C(N)=O)c2)[C@H](C)[C@H]2OC(=O)O[C@@]21C , please?
>8

Could you do the same for CC[C@H]1OC(=O)[C@H](C)[C@@H](OC(=O)CCNCCCCNc2cc3c(cc2F)c(=O)c(C(=O)O)cn3C2CC2)[C@H](C)[C@@H](O[C@@H]2O[C@H](C)C[C@H](N(C)C)[C@H]2O)[C@](C)(OC)C[C@@H](C)/C(=N\OC/C=C/c2ccc3c(c2)c(=O)c(C(N)=O)cn3CC)[C@H](C)[C@H]2OC(=O)O[C@@]21C , please?
>4

Could you do the same for CC[C@H]1OC(=O)[C@H](C)[C@@H](OC(=O)CCNCCCCNc2cc3c(cc2F)c(=O)c(C(=O)O)cn3C2CC2)[C@H](C)[C@@H](O[C@@H]2O[C@H](C)C[C@H](N(C)C)[C@H]2O)[C@](C)(OC)C[C@@H](C)/C(=N\OC/C=C/c2cncc(C(=O)NC)c2)[C@H](C)[C@H]2OC(=O)O[C@@]21C , please?
>8

###

tested on: Staphylococcus aureus; assay: Selectivity ratio of MBC for methicillin-resistant Staphylococcus aureus PU 32 harboring i-ermA gene to MIC for methicillin-resistant Staphylococcus aureus PU 32 harboring i-ermA gene; format: functional
measurement.type: Selectivity ratio

Bench note: what Selectivity ratio did CC[C@H]1OC(=O)[C@H](C)[C@@H](O[C@H]2C[C@@](C)(OC)[C@@H](O)[C@H](C)O2)[C@H](C)[C@@H](O[C@@H]2O[C@H](C)C[C@H](N(C)C)[C@H]2O)[C@](C)(OC)C[C@@H](C)C(=O)[C@H](C)[C@@H](O)[C@]1(C)O [CLARITHROMYCIN] show?
>8

Could you do the same for CC[C@H]1OC(=O)[C@H](C)[C@@H](OC(=O)CCN2CCN(c3cc4c(cc3F)c(=O)c(C(=O)O)cn4C3CC3)CC2)[C@H](C)[C@@H](O[C@@H]2O[C@H](C)C[C@H](N(C)C)[C@H]2O)[C@](C)(OC)C[C@@H](C)/C(=N\OC)[C@H](C)[C@H]2OC(=O)O[C@@]21C , please?
>4

Could you do the same for CC[C@H]1OC(=O)[C@H](C)[C@@H](OC(=O)CCN2CCN(c3cc4c(cc3F)c(=O)c(C(=O)O)cn4C3CC3)CC2)[C@H](C)[C@@H](O[C@@H]2O[C@H](C)C[C@H](N(C)C)[C@H]2O)[C@](C)(OC)C[C@@H](C)/C(=N\OCC#Cc2cncc(C(=O)NC)c2)[C@H](C)[C@H]2OC(=O)O[C@@]21C , please?
>4
